The reported measurements were obtained from the supplement of paper PMC8671470.

system: HEL; experiment: cell viability (% survival relative to DMSO control, bortezomib = 0%); higher = less cytotoxic; conditions: 100 nM; 72 h
// values below are reported cell viability
measurementLabel: cell viability

[
  {
    "compound": "Clc1ccc(COC(Cn2ccnc2)c2ccc(Cl)cc2Cl)cc1 (centres undefined)",
    "assayedSystem": "HEL",
    "endpointValue": "99.1%"
  },
  {
    "compound": "O=C1Nc2ccccc2/C1=C\\NCCc1ccc(O)c(O)c1",
    "assayedSystem": "HEL",
    "endpointValue": "104%"
  },
  {
    "compound": "O=C(O)CC[C@H](NC(=O)c1ccc([N+](=O)[O-])cc1)C(=O)O [(S)-2-(4-Nitrobenzamido)pentanedioic acid]",
    "assayedSystem": "HEL",
    "endpointValue": "94%"
  },
  {
    "compound": "CC(C(=O)O)C(=O)O [Methylmalonate]",
    "assayedSystem": "HEL",
    "endpointValue": "109%"
  }
]
